Method: Solubility in 20 mM acetic, citric and L-aspartic aqueous media as a function of pH (Example 14)
Type: physicochemical
Protocol Conditions: 22 °C, aqueous buffer, thermodynamic from solid; 20 mM citric acid media, pH 5.91, 22 ± 1° C., Compound A in excess; read-out: Solubility
Experimental Readout: solubility (µg/mL)
Express the result in µg/mL but write the number alone.

Dear colleague, I am looking for the recorded solubility of the following compound: CCn1nc(C)cc1C(=O)Nc1nc2cc(C(N)=O)cc(OC)c2n1C/C=C/Cn1c(NC(=O)c2cc(C)nn2CC)nc2cc(C(N)=O)cc(OCCCN3CCOCC3)c21
1.3

---

Method: Solubility screening up to 2 mg/mL at RT in aqueous acid media (Examples 7 to 13)
Format: physicochemical
Protocol Conditions: 10 mM acetic acid aqueous medium, pH 3.33, aqueous buffer, thermodynamic from solid, 10 mM Acetic acid, solution pH 3.33, stirred 24 h, target up to 2 mg/mL; read-out: Drug Solubility
Experimental Readout: solubility at 24 h

Dear colleague, I am looking for the recorded solubility at 24 h of the following molecule: CCn1nc(C)cc1C(=O)Nc1nc2cc(C(N)=O)cc(OC)c2n1C/C=C/Cn1c(NC(=O)c2cc(C)nn2CC)nc2cc(C(N)=O)cc(OCCCN3CCOCC3)c21
> 1000 µg/mL

---

Method: Solubility screening up to 2 mg/mL at RT in aqueous acid media (Examples 7 to 13)
Assay type: physicochemical
Protocol Conditions: 25 mM tartaric acid aqueous medium, pH 2.33, aqueous buffer, thermodynamic from solid, 25 mM Tartaric acid, solution pH 2.33, stirred 24 h, target up to 2 mg/mL; read-out: Drug Solubility
Experimental Readout: solubility at 24 h

Dear colleague, I am looking for the recorded solubility at 24 h of the following compound: CCn1nc(C)cc1C(=O)Nc1nc2cc(C(N)=O)cc(OC)c2n1C/C=C/Cn1c(NC(=O)c2cc(C)nn2CC)nc2cc(C(N)=O)cc(OCCCN3CCOCC3)c21
< 1000 µg/mL

---

Method: Solubility in 20 mM acetic, citric and L-aspartic aqueous media as a function of pH (Example 14)
Format: physicochemical
Protocol Conditions: 20 mM citric acid aqueous media, 22 °C, aqueous buffer, thermodynamic from solid; 20 mM citric acid media, pH 8.82, 22 ± 1° C., Compound A in excess; read-out: Solubility
Experimental Readout: solubility (µg/mL)
Express the result in µg/mL but write the number alone.

Dear colleague, I am looking for the recorded solubility of the following compound: CCn1nc(C)cc1C(=O)Nc1nc2cc(C(N)=O)cc(OC)c2n1C/C=C/Cn1c(NC(=O)c2cc(C)nn2CC)nc2cc(C(N)=O)cc(OCCCN3CCOCC3)c21
0.5

---

Method: Solubility in 20 mM acetic, citric and L-aspartic aqueous media as a function of pH (Example 14)
Format: physicochemical
Protocol Conditions: 22 °C, aqueous buffer, thermodynamic from solid; 20 mM acetic acid media, pH 5.48, 22 ± 1° C., Compound A in excess; read-out: Solubility
Experimental Readout: solubility (µg/mL)
Express the result in µg/mL but write the number alone.

Dear colleague, I am looking for the recorded solubility of the following molecule: CCn1nc(C)cc1C(=O)Nc1nc2cc(C(N)=O)cc(OC)c2n1C/C=C/Cn1c(NC(=O)c2cc(C)nn2CC)nc2cc(C(N)=O)cc(OCCCN3CCOCC3)c21
2.9

---

Method: Solubility in 20 mM acetic, citric and L-aspartic aqueous media as a function of pH (Example 14)
Assay type: physicochemical
Protocol Conditions: 22 °C, aqueous buffer, thermodynamic from solid; 20 mM L-aspartic acid media, pH 3.76, 22 ± 1° C., Compound A in excess; read-out: Solubility
Experimental Readout: solubility (µg/mL)
Express the result in µg/mL but write the number alone.

Dear colleague, I am looking for the recorded solubility of the following compound: CCn1nc(C)cc1C(=O)Nc1nc2cc(C(N)=O)cc(OC)c2n1C/C=C/Cn1c(NC(=O)c2cc(C)nn2CC)nc2cc(C(N)=O)cc(OCCCN3CCOCC3)c21 [Compound A]
472

---

Method: Solubility in 20 mM acetic, citric and L-aspartic aqueous media as a function of pH (Example 14)
Assay type: physicochemical
Protocol Conditions: 22 °C, pH 2.9, aqueous buffer, thermodynamic from solid; 20 mM citric acid media, pH 2.90, 22 ± 1° C., Compound A in excess; read-out: Solubility
Experimental Readout: solubility (µg/mL)
Express the result in µg/mL but write the number alone.

Dear colleague, I am looking for the recorded solubility of the following compound: CCn1nc(C)cc1C(=O)Nc1nc2cc(C(N)=O)cc(OC)c2n1C/C=C/Cn1c(NC(=O)c2cc(C)nn2CC)nc2cc(C(N)=O)cc(OCCCN3CCOCC3)c21
41.5

---

Method: Solubility in 20 mM acetic, citric and L-aspartic aqueous media as a function of pH (Example 14)
Assay type: physicochemical
Protocol Conditions: 22 °C, pH 3.4, aqueous buffer, thermodynamic from solid; 20 mM citric acid media, pH 3.40, 22 ± 1° C., Compound A in excess; read-out: Solubility
Experimental Readout: solubility (µg/mL)
Express the result in µg/mL but write the number alone.

Dear colleague, I am looking for the recorded solubility of the following compound: CCn1nc(C)cc1C(=O)Nc1nc2cc(C(N)=O)cc(OC)c2n1C/C=C/Cn1c(NC(=O)c2cc(C)nn2CC)nc2cc(C(N)=O)cc(OCCCN3CCOCC3)c21
8.3

---

Method: Solubility in 20 mM acetic, citric and L-aspartic aqueous media as a function of pH (Example 14)
Type: physicochemical
Protocol Conditions: 22 °C, aqueous buffer, thermodynamic from solid; 20 mM acetic acid media, pH 3.91, 22 ± 1° C., Compound A in excess; read-out: Solubility
Experimental Readout: solubility
The reply must contain the numeric value and, after it, the unit.

Dear colleague, I am looking for the recorded solubility of the following compound: CCn1nc(C)cc1C(=O)Nc1nc2cc(C(N)=O)cc(OC)c2n1C/C=C/Cn1c(NC(=O)c2cc(C)nn2CC)nc2cc(C(N)=O)cc(OCCCN3CCOCC3)c21
396 µg/mL

---

Method: Solubility in 20 mM acetic, citric and L-aspartic aqueous media as a function of pH (Example 14)
Assay type: physicochemical
Protocol Conditions: 22 °C, aqueous buffer, thermodynamic from solid; 20 mM acetic acid media, pH 4.64, 22 ± 1° C., Compound A in excess; read-out: Solubility
Experimental Readout: solubility (µg/mL)
Express the result in µg/mL but write the number alone.

Dear colleague, I am looking for the recorded solubility of the following molecule: CCn1nc(C)cc1C(=O)Nc1nc2cc(C(N)=O)cc(OC)c2n1C/C=C/Cn1c(NC(=O)c2cc(C)nn2CC)nc2cc(C(N)=O)cc(OCCCN3CCOCC3)c21
24.1
